measured.on: IDO1 in SKOV3 cells (Homo sapiens, UniProt P14902)
Construct: SKOV3 cells (NCI, No. 0503405) which upregulate IDO1 after stimulation with IFNγ; host or cells: SKOV3 cells stimulated with IFNγ
Sequence (P14902 whole entry): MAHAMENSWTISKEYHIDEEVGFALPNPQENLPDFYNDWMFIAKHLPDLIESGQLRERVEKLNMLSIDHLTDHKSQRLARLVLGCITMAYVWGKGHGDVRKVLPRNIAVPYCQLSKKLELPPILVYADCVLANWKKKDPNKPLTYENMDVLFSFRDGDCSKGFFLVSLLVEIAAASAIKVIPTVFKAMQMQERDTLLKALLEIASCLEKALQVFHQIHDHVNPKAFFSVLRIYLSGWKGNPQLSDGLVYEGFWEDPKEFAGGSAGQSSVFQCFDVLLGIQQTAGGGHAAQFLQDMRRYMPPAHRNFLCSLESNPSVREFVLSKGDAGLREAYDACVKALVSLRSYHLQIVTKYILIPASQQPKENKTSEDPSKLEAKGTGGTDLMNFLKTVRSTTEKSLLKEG
experiment.notes: Cell-based IDO inhibitory activity in IFNγ-stimulated SKOV3 cells (NFK + kynurenine by LCMS)
experimental.context: IFNγ 50 ng/ml, 200 uM L-tryptophan, 24 hours
Description: 3) Testing Compounds for IDO/TDO Inhibitory Activity and Toxicity in Cell-Based Assays SW48 cells (ATCC, CCL-231) are used to measure compounds for TDO inhibitory activity and are routinely maintained in DMEM high glucose/GlutaMAX™/pyruvate 90% (v/v), FCS 10% (v/v), Penicilin/streptomycin 1% (v/v). […] N-formylkynurenine and kynurenine are quantified by LCMS, normalized to the internal standard L-tryptophan-(indole-d5) and the sum is calculated. […]
// reported IC50 for each item listed
Only the number, expressed in nM, is required.

Check out these entries, answers already filled in.
compound	numeric.result
Oc1ccc(-n2cc([C@H](O)c3c(C4CC4)ncc4cncn34)nn2)cc1Cl [Example 10a]	12.5
Cc1c(C(O)c2c(Cl)ccc3cncn23)nnn1-c1ccc(O)c(Cl)c1 (racemic) [Example 43]	64.2
CC(C)(O)COc1cc(F)c(-n2cc([C@H](O)c3c(C4CC4)ncc4cncn34)nn2)cc1F [Example 56]	29.3

Look up and report measured IC50 for this entry: CCOc1ccc(-n2cc(C(O)c3c(C4CC4)ncc4cncn34)nn2)cn1 (racemic) [Example 13] 326

Return IC50 (reported value) for this compound: Oc1ccc(-n2cc(C(O)c3c(C4CC4)ccc4cncn34)nn2)cc1Cl (single isomer, unassigned) [Example 7a] 4.84

Identify measured IC50 associated with COc1ccc(-n2cc([C@H](O)c3c(C4CC4)ncc4cncn34)nn2)cc1Br [Example 23] 51.9

Using the record for COc1ccc(-n2nnc(C(O)c3c(Cl)ccc4cncn34)c2C)cc1 (racemic) [Example 20] , state its measured IC50. 14.5

Return the recorded IC50 value; entry: Oc1ccc(-n2cc(C(O)c3c(C4CC4)ncc4cncn34)nn2)cc1 (racemic) [Example 15] 208

---

Overview of reported IC50 across a group of compounds:
measured.on: Recombinant human TDO comprising amino acids 19-407 (Homo sapiens, UniProt P48775)
Construct: human TDO comprising amino acids 19-407; hexahistidine (N); made in house; host or cells: E. coli
Sequence (P48775 19-406 limits assumed): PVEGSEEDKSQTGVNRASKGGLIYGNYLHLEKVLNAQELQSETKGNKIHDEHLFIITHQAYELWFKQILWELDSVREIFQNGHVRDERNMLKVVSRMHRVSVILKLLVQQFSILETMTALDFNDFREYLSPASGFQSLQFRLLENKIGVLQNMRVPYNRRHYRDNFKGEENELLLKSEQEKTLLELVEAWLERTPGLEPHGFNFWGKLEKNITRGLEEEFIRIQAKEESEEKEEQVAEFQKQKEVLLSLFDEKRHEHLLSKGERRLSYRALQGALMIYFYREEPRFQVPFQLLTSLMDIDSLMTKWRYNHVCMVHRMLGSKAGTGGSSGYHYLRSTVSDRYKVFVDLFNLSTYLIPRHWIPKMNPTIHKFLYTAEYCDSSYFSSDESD
experiment.notes: TDO2 enzymatic assay (NFK quantified by LCMS)
Format: biochemical
experimental.context: 15 nM enzyme, 200 μM L-tryptophan, 30 min pre-incubation, pH7; mean if measured multiple times; read-out: hTDO activity (IC50 in nM)

Study these solved cases before continuing.
compound	IC50
O[C@@H](c1cn(-c2ccccc2)nn1)c1c(Cl)ccc2cncn12	9110 nM
COc1cc(F)c(-n2nnc(C(O)c3c(Cl)ccc4cncn34)c2C)cc1Cl (racemic)	7940 nM

Look up IC50 of CCOc1ccc(-n2cc(C(O)c3c(C4CC4)ccc4cncn34)nn2)cn1 (racemic) and report it. > 10200 nM

State, in one line, measured IC50 of COc1ccc(-n2cc([C@H](O)c3c(C4CC4)ncc4cncn34)nn2)cc1Cl [Example 11a] > 10200 nM

In one line, give reported IC50 of the entry CC(C)(O)COc1cc(F)c(-n2cc([C@H](O)c3c(C4CC4)ncc4cncn34)nn2)cc1F . > 10200 nM

---

measured.on: Recombinant full-length human IDO1 (Homo sapiens, UniProt P14902)
Construct: Recombinant full-length human IDO1 with a N-terminal hexahistidine tag; hexahistidine (N); made in house; host or cells: E. coli
experiment.notes: IDO1 enzymatic assay (NFK quantified by LCMS)
Format: biochemical
experimental.context: 2 nM enzyme, 5 μM L-tryptophan, 30 min pre-incubation, pH6.5; mean if measured multiple times; read-out: hIDO activity (IC50 in nM)
Documented IC50 across a set of molecules
A complete answer gives the number followed by the unit.

Report value only: IC50, Recombinant full-length human IDO1 (Homo sapiens, UniProt P14902), Oc1ccc(-n2cc(C(O)c3c(C4CC4)ccc4cncn34)nn2)cc1Cl (single isomer, unassigned) [Example 7a] 2.12 nM

Tell me IC50 of CCc1ncc2cncn2c1C(O)c1cn(-c2cc(F)c(OC)cc2F)nn1 (racemic) [Example 32] when tested on Recombinant full-length human IDO1 (Homo sapiens, UniProt P14902). 14.3 nM

Fill in: IC50 on Recombinant full-length human IDO1 (Homo sapiens, UniProt P14902), entry Oc1ccc(-n2cc([C@H](O)c3c(C4CC4)ncc4cncn34)nn2)cc1F [Example 27] 5.6 nM

Identify measured IC50 obtained with Recombinant full-length human IDO1 (Homo sapiens, UniProt P14902) for Cc1ccc2cncn2c1[C@@H](O)c1cn(-c2ccccc2)nn1 [Example 2a] . 4.29 nM

---

# key: entry, value: log10 IC50
measured.on: Recombinant full-length human IDO1 (Homo sapiens)
Construct: Recombinant full-length human IDO1 with a N-terminal hexahistidine tag; hexahistidine (N); made in house; host or cells: E. coli
experiment.notes: IDO1 enzymatic assay (NFK quantified by LCMS)
Type: biochemical
experimental.context: 2 nM enzyme, 5 μM L-tryptophan, 30 min pre-incubation, pH6.5; mean if measured multiple times; read-out: hIDO activity (IC50 in nM)
log10 IC50, nM

Supply reported log10 IC50 belonging to this compound: COc1ccc(-n2cc(C(O)c3c(C4CC4)ncc4cncn34)nn2)cc1 (racemic) 1.31

Return log10 IC50 for the following compound: CCOc1ccc(-n2cc(C(O)c3c(C4CC4)ccc4cncn34)nn2)cn1 (racemic) 0.73

Supply measured log10 IC50 of OC(c1cn(-c2ccccc2)nn1)c1c(Cl)ccc2cncn12 (racemic) in your reply. 0.98

Query log10 IC50 for COc1cc(F)c(-n2cc([C@H](O)c3c(Cl)ccc4cncn34)nn2)cc1F 0.05

Annotate the compound Oc1ccc(-n2cc(C(O)c3c(C4CC4)ccc4cncn34)nn2)cc1Cl (racemic) [Example 7] with its measured log10 IC50. 0.58

---

measured.on: Recombinant full-length human IDO1 (Homo sapiens, UniProt P14902)
Construct: Recombinant full-length human IDO1 with a N-terminal hexahistidine tag; hexahistidine (N); made in house; host or cells: E. coli
experiment.notes: IDO1 enzymatic assay (NFK quantified by LCMS)
Format: biochemical
experimental.context: 2 nM enzyme, 5 μM L-tryptophan, 30 min pre-incubation, pH6.5; mean if measured multiple times; read-out: hIDO activity (IC50 in nM)
outcome.measure: IC50 (nM)
Give the value in nM but do not write nM after it.

Examples with their reported IC50 follow.
molecule	measured.on	unit.of.measure	IC50
Cc1ccc2cncn2c1C(O)c1cn(-c2ccccc2)nn1 (racemic) [Example 2]	Recombinant full-length human IDO1 (Homo sapiens, UniProt P14902)	nM	6.17
Cc1c(C(O)c2c(Cl)ccc3cncn23)nnn1-c1ccc(O)c(Cl)c1 (racemic) [Example 43]	Recombinant full-length human IDO1 (Homo sapiens, UniProt P14902)	nM	3.88
COc1ccc(-n2nnc([C@H](O)c3c(Cl)ccc4cncn34)c2C)cc1 [Example 20a]	Recombinant full-length human IDO1 (Homo sapiens, UniProt P14902)	nM	1.84
O[C@@H](c1cn(-c2ccccc2)nn1)c1c(C2CC2)ncc2cncn12 [Example 3a]	Recombinant full-length human IDO1 (Homo sapiens, UniProt P14902)	nM	16.7
O[C@@H](c1cn(-c2ccccc2)nn1)c1c(Cl)ccc2cncn12 [Example 1a]	Recombinant full-length human IDO1 (Homo sapiens, UniProt P14902)	nM	5.07
O[C@@H](c1cn(-c2ccc(OCC3(F)COC3)c(F)c2)nn1)c1c(C2CC2)ncc2cncn12 [Example 28]	Recombinant full-length human IDO1 (Homo sapiens, UniProt P14902)	nM	6.28
COc1ccc(-n2cc(C(O)c3c(C4CC4)ccc4cncn34)nn2)cc1 (racemic) [Example 4]	Recombinant full-length human IDO1 (Homo sapiens, UniProt P14902)	nM	3.7
OC(c1cn(-c2ccccc2)nn1)c1c(C2CC2)ncc2cncn12 (racemic) [Example 3]	Recombinant full-length human IDO1 (Homo sapiens, UniProt P14902)	nM	41

Let me know recorded IC50 for CC(C)(O)COc1ccc(-n2cc([C@H](O)c3c(C4CC4)ncc4cncn34)nn2)cc1F [Example 29] , thanks. 7.74

Look up and state reported IC50 for COc1cc(F)c(-n2nnc(C(O)c3c(Cl)ccc4cncn34)c2C)cc1Cl (racemic) [Example 39] 5.26

Look up IC50 of CCc1c(C(O)c2c(Cl)ccc3cncn23)nnn1-c1ccc(OC)cc1 (racemic) [Example 37] and report it. 5.28

---

measured.on: IDO1 in SKOV3 cells (Homo sapiens)
Construct: SKOV3 cells (NCI, No. 0503405) which upregulate IDO1 after stimulation with IFNγ; host or cells: SKOV3 cells stimulated with IFNγ
experiment.notes: Cell-based IDO inhibitory activity in IFNγ-stimulated SKOV3 cells (NFK + kynurenine by LCMS)
experimental.context: IFNγ 50 ng/ml, 200 uM L-tryptophan, 24 hours
Attribute: IC50
Numbers only; they are read as nM.

compound	numeric.result
CCc1ccc2cncn2c1[C@@H](O)c1cn(-c2cc(F)c(OC)cc2F)nn1 [Example 35a]	0.95
Cc1ccc(-n2cc(C(O)c3c(C4CC4)ccc4cncn34)nn2)cc1 (racemic)	53.7
COc1cc(F)c(-n2cc([C@H](O)c3c(C4CC4)ncc4cncn34)nn2)cc1F	20.2
CCOc1ccc(-n2cc(C(O)c3c(C4CC4)ccc4cncn34)nn2)cn1 (racemic)	31.2
O[C@@H](c1cn(-c2ccc(N3CC4(COC4)C3)cc2)nn1)c1c(C2CC2)ncc2cncn12	56.8

Return reported IC50. Input compound: COc1ccc(-n2cc(C(O)c3c(C4CC4)ccc4cncn34)nn2)cc1Cl (racemic) 8.8

Please give measured IC50 of the following entry: COc1ccc(-n2cc(C(O)c3c(C4CC4)ncc4cncn34)nn2)cc1Cl (racemic) 37.1
